experiment: Calculated solubilities in octanol, pH 7.4 buffer and acidic water; type: physicochemical; conditions: solubility in octanol; calculated from log KOCT:MO and log SMO; data from Wenkers and Lippold 1999
propertyMeasured: log SOCT (mM)
Quick reminder: number only, in mM, skip the unit.

1. O=C(O)Cc1ccccc1Nc1c(Cl)cccc1Cl [Diclofenac]: 1.89
2. CC(=O)Oc1ccccc1C(=O)O [Aspirin]: 3.14
3. O=C(O)c1ccccc1Nc1cccc(C(F)(F)F)c1 [Flufenamic Acid]: 2.46
4. CC(C)Cc1ccc(C(C)C(=O)O)cc1 (stereo not shown) [Ibuprofen]: 3.24
5. CN1C(C(=O)Nc2ccccn2)=C(O)c2ccccc2S1(=O)=O [Piroxicam]: 0.75

Problem: Query: log SOCT; subject: COc1ccc2cc(CCC(C)=O)ccc2c1 [Nabumetone]
Solution: 1.76

Problem: Now try O=C(O)c1cc(-c2ccc(F)cc2F)ccc1O [Diflunisal] .
Solution: 2.19
